Target: Voltage-gated potassium channel subunit beta-2 (Rattus norvegicus) (UniProt P62483)
Sequence (P62483 whole entry, looked up): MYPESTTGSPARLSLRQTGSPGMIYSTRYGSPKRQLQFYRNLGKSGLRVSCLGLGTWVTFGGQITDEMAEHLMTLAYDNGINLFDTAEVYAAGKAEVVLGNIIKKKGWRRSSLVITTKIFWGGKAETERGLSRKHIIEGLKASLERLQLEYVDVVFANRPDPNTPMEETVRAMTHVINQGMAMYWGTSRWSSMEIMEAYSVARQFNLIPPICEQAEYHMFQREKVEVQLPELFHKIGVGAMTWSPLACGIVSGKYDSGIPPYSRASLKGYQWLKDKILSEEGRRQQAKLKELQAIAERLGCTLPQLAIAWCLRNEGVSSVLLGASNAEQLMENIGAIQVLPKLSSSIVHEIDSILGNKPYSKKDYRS
Assay: inhibitors of rat Kvbeta2 reductase activity – biochemical, NADPH fluorescence, primary screen (AID 622);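 further: slope of raw intensity against log time taken from 70 to 1610 s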
Details: recombinant KvBeta, 4-cyanobenzaldehyde reduction, at 10 µM, stronger effect = higher value
Classification field: Satisfied = fluorescence slope at or over -0.5; Not satisfied = fluorescence slope under -0.5.

Query: Does fluorescence slope meet or surpass -0.5 for O=C(CSc1nc(-c2ccccc2)cs1)NC(=O)NCc1ccco1 ?
Response: Satisfied

Query: Does fluorescence slope meet or surpass -0.5 for COc1ccc(C(=O)Nc2nc(C)c(C(=O)N(C)C)s2)cc1OC ?
Response: Satisfied

Query: Does fluorescence slope meet or surpass -0.5 for CCCS(=O)(=O)N1CCN(C(=O)c2cccs2)CC1 ?
Response: Not satisfied

Query: Does fluorescence slope meet or surpass -0.5 for CCN1CCN(C(=O)Cn2ncc3ccsc3c2=O)CC1 ?
Response: Not satisfied

Query: Does fluorescence slope meet or surpass -0.5 for Cc1cc(=O)n(-c2ccc3ccccc3n2)[nH]1 ?
Response: Satisfied

Query: Does fluorescence slope meet or surpass -0.5 for CCC(=O)Nc1c2c(nn1-c1ccccc1C)CSC2 ?
Response: Not satisfied

Query: Does fluorescence slope meet or surpass -0.5 for O=C(OCn1nnc2ccccc2c1=O)C1CCN(S(=O)(=O)c2cccs2)CC1 ?
Response: Satisfied

Query: Does fluorescence slope meet or surpass -0.5 for COc1cc(C2c3c(oc4ccccc4c3=O)C(=O)N2c2ccc(C)cn2)ccc1O (centres undefined) ?
Response: Not satisfied

Query: Does fluorescence slope meet or surpass -0.5 for CCCCn1c(NC(=O)CC)c(C#N)c2nc3ccccc3nc21 ?
Response: Satisfied

Query: Does fluorescence slope meet or surpass -0.5 for COc1ccccc1N(CC(=O)NCc1ccccn1)S(C)(=O)=O ?
Response: Satisfied

Query: Does fluorescence slope meet or surpass -0.5 for CC(C)CC1NC(=O)N(CC(=O)N2CCN(S(=O)(=O)c3ccc(Cl)cc3)CC2)C1=O (centres undefined) ?
Response: Satisfied

Query: Does fluorescence slope meet or surpass -0.5 for COc1ccc(N2Cc3ccccc3C2)cc1Cl ?
Response: Not satisfied

Query: Does fluorescence slope meet or surpass -0.5 for Cc1ccc(CCNC(=O)C2CCCN(S(=O)(=O)c3cnc[nH]3)C2)cc1 (centres undefined) ?
Response: Not satisfied

Query: Does fluorescence slope meet or surpass -0.5 for O=c1c2ccccc2nc2n1CCN2 ?
Response: Not satisfied

Query: Does fluorescence slope meet or surpass -0.5 for O=C1N(CCCCN2C(=O)C3(OCCO3)c3ccccc32)c2ccccc2C12OCCO2 ?
Response: Satisfied

Query: Does fluorescence slope meet or surpass -0.5 for CCN1CCN(c2ncc(C(=O)N3CCN(c4ccccc4OC)CC3)c3ccccc23)CC1 ?
Response: Satisfied

Query: Does fluorescence slope meet or surpass -0.5 for O=S(=O)(NCc1cn2ccccc2n1)c1cc(F)ccc1F ?
Response: Satisfied

Query: Does fluorescence slope meet or surpass -0.5 for CC(C)(C)C(=O)/C=C(\N)c1ccccn1 ?
Response: Satisfied

Query: Does fluorescence slope meet or surpass -0.5 for Cc1cc(N=Cc2cc(Br)ccc2O)no1 ?
Response: Satisfied

Query: Does fluorescence slope meet or surpass -0.5 for NC(=O)c1cccc(S(=O)(=O)N2CCCCC2)c1 ?
Response: Satisfied

Query: Does fluorescence slope meet or surpass -0.5 for COc1ccc(C)cc1NC(=O)CN(Cc1nnc(-c2ccc(Cl)cc2)o1)C1CCCC1 ?
Response: Satisfied

Query: Does fluorescence slope meet or surpass -0.5 for CCOC(=O)c1ccc(N2Cc3cc(C)c(C)cc3C2)cc1O ?
Response: Satisfied

Query: Does fluorescence slope meet or surpass -0.5 for O=C(Nc1cccnc1)c1noc2c1CCCCC2 ?
Response: Satisfied
